molecular target: Integrin alpha-4/beta-1 (Homo sapiens, UniProt P05556+P13612); assay: In vitro Very late antigen 4 cell adhesion inhibitory activity measured by binding of fluorescently labeled Ramos cells to immobilized VCAM-1.; format: cell-based
Sequence (P05556 whole entry): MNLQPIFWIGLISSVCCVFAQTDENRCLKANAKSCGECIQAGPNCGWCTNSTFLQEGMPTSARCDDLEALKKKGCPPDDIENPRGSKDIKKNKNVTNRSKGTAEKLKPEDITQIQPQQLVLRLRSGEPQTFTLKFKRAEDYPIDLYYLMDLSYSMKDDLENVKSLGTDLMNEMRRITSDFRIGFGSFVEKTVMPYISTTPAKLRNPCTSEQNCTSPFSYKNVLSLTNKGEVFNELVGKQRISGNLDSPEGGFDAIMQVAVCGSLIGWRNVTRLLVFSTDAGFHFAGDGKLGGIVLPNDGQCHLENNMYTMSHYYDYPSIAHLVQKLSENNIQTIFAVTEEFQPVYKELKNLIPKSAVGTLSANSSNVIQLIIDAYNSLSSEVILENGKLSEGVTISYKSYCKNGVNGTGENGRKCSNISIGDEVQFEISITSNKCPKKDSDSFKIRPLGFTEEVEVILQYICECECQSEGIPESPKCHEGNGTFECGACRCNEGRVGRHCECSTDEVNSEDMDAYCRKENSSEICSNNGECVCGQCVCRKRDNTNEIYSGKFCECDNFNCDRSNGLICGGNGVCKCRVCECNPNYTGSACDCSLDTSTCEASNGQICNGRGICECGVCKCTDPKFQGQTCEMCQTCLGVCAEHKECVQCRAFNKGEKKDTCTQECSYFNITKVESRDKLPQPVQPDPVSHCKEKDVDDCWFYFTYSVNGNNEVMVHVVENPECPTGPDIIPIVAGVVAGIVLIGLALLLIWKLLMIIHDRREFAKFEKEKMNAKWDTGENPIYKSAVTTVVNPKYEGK
Sequence (P13612 whole entry): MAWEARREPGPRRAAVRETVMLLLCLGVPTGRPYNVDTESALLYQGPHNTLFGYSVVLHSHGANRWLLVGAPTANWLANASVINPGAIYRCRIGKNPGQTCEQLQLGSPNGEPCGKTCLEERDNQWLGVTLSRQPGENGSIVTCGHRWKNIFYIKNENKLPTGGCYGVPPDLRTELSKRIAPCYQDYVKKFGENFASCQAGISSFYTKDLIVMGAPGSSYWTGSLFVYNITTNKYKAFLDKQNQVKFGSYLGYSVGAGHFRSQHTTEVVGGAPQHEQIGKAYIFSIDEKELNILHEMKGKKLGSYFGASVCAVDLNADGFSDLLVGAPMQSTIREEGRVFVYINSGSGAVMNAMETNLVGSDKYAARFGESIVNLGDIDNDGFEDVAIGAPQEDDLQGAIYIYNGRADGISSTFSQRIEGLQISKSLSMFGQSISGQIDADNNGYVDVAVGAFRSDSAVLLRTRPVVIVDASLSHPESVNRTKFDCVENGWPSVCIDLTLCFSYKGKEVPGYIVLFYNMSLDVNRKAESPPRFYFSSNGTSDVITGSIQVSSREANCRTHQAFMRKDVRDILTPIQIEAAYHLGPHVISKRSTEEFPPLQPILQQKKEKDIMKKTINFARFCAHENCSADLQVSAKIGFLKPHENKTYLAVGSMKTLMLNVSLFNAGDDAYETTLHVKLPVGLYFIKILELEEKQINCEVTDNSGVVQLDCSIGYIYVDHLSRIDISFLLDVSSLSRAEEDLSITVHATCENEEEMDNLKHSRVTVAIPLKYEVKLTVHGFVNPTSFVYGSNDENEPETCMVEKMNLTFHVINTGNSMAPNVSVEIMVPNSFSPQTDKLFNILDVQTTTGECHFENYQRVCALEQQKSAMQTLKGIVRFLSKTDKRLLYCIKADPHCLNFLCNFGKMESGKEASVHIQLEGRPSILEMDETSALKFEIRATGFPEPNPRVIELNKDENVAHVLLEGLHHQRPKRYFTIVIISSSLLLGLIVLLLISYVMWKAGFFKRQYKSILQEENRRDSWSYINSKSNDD
A collection of compounds and their measured IC50
Quick reminder: number only, in nM, skip the unit.

C=CC[C@H](CC(=O)O)NC(=O)[C@H](CC(C)C)NC(=O)Cc1ccc(NC(=O)Nc2ccccc2C)cc1 :: 16.5
C/C=C/[C@@H](CC(=O)O)NC(=O)C[C@@H](CC(C)C)NC(=O)Cc1ccc(NC(=O)Nc2ccccc2C)cc1 :: 103000
COCCCN(CC(=O)N[C@@H](CC(=O)O)c1ccc(OC)c(OC)c1)C(=O)Cc1ccc(NC(=O)Nc2ccccc2C)cc1 :: 7.1

Let's switch to this compound now.
// IC50 (Integrin alpha-4/beta-1 (Homo sapiens, UniProt P05556+P13612)) for COCCCN(CC(=O)N[C@@H](CC(=O)O)c1ccccc1)C(=O)Cc1ccc(NC(=O)Nc2ccccc2C)cc1 = 11.7

Value source: ChEMBL document CHEMBL1134819
